# System Under Test: type A botulinum toxin (BoNT/A) (Clostridium botulinum)
# Sequence (P0DPI1 2-448 limits assumed): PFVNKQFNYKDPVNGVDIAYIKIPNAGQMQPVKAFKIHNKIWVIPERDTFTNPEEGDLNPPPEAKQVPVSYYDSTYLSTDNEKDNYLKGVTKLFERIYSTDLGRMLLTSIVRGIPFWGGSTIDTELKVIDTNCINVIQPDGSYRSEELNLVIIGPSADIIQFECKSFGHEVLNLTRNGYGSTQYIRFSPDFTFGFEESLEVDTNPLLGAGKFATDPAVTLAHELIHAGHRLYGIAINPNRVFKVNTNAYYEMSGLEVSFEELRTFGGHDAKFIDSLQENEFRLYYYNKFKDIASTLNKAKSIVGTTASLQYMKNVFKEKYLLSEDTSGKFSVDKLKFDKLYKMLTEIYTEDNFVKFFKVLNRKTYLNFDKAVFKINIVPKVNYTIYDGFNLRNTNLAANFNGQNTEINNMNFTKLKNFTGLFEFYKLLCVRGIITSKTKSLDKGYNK
# Sequence (P0DPI1 449-1296 limits assumed): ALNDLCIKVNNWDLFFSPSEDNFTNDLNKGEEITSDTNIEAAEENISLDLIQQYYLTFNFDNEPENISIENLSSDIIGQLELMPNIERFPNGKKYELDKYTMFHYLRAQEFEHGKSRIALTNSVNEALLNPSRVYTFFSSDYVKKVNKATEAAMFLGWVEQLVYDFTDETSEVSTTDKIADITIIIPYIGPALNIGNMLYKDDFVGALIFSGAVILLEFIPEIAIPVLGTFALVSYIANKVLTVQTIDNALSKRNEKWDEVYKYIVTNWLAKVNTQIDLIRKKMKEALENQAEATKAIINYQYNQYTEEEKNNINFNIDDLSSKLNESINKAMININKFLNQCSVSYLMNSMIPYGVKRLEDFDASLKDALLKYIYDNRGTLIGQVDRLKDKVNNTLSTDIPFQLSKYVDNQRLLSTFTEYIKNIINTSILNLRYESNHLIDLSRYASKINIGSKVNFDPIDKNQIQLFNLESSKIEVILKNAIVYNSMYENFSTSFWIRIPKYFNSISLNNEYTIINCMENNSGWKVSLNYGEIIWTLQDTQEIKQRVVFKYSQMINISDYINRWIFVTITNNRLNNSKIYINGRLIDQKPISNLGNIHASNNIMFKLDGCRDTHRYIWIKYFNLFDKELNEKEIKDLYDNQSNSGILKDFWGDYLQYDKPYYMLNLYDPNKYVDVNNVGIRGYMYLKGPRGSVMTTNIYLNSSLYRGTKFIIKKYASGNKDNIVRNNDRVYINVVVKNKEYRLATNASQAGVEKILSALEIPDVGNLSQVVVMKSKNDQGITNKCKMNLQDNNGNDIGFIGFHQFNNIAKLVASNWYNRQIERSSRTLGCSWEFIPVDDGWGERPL
# Set-up: species or system Balb/c mice
# Experimental Context: mouse, in vivo, ip
Measured Metric: % survival (%)
Quick note: give the figure in %, leave out the unit.

O=C(CSc1ncccc1C(=O)[O-])Nc1ccc(OC(F)(F)F)cc1.[K+] | 40
COc1cc(Cl)cc(NCC(=O)Sc2ncccc2C(=O)[O-])c1.[Na+] | 100

# ---- query compound ----
// sample "COc1ccc(Cl)cc1NC(=O)CSc1ncccc1C(=O)[O-].[K+]" , its % survival was 40

---

# System Under Test: BoNT/F-LC (Clostridium botulinum, UniProt A7GBG3)
# Sequence (A7GBG3 1-436 limits assumed): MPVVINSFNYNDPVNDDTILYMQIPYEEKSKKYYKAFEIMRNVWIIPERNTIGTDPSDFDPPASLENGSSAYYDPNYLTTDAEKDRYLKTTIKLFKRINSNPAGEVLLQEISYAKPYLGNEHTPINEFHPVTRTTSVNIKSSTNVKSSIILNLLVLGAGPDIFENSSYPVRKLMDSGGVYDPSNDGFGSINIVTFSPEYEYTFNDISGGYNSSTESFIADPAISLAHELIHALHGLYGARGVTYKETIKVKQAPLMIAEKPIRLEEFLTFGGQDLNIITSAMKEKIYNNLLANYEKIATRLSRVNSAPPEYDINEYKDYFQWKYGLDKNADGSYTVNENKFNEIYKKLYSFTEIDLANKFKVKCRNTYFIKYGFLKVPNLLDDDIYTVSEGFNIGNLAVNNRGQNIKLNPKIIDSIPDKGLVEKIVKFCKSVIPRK
# Assay Procedure: biochemical
# Experimental Context: read-out: Inhibition rate %
Classification field: true (1) = inhibition at 100 µg/mL at or over 5%; false (0) = inhibition at 100 µg/mL under 5%.

O=C(CSc1ncccc1C(=O)O)Nc1cc(F)ccc1F | false (0)
O=C(CSc1ncccc1C(=O)[O-])Nc1cc(OC(F)(F)F)ccc1Br.[K+] | true (1)
O=C(CSc1ncccc1C(=O)O)Nc1ccc(F)cc1 | false (0)

For the next question, use this compound.
Problem: # bool: inhibition at 100 µg/mL of "O=C(CSc1ncccc1C(=O)O)Nc1ccccc1" >= 5%
Solution: true (1)

---

# System Under Test: type E botulinum toxin light chain (BoNT/E-LC) (Clostridium botulinum, UniProt Q00496)
# Sequence (Q00496 2-422 limits assumed): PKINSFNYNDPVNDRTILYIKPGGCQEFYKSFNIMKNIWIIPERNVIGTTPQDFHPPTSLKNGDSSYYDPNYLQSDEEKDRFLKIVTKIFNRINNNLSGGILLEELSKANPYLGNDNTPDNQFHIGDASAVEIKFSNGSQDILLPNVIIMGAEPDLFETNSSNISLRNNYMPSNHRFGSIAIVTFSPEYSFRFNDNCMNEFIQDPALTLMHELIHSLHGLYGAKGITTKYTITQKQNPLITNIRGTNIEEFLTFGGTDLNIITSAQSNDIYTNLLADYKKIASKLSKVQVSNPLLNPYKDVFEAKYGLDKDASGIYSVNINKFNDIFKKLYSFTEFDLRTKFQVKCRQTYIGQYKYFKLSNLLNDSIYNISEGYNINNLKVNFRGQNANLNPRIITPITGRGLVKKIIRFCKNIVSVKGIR
# Assay Procedure: biochemical
# Experimental Context: read-out: Inhibition rate %
Each entry below carries its recorded inhibition at 100 µg/mL.
Quick note: give the figure in %, leave out the unit.

Solved cases (3 shown):
O=C(CSc1ncccc1C(=O)[O-])Nc1cc(Br)ccc1Br.[K+] [Example 9, potassium] | 8.2
COc1ccc(F)cc1NC(=O)CSc1ncccc1C(=O)O [Example 13, potassium] | 18.3
O=C(CSc1ncccc1C(=O)[O-])Nc1cc(OC(F)(F)F)ccc1Br.[K+] [Example 26, potassium] | 12.1

# ---- query molecule ----
// sample COc1ccc(Cl)c(NC(=O)CSc2ncccc2C(=O)[O-])c1.[K+] [Example 14, potassium] , its inhibition at 100 µg/mL was 13.5

---

# System Under Test: type B botulinum toxin light chain (BoNT/B-LC) (Clostridium botulinum, UniProt P10844)
# Sequence (P10844 2-441 limits assumed): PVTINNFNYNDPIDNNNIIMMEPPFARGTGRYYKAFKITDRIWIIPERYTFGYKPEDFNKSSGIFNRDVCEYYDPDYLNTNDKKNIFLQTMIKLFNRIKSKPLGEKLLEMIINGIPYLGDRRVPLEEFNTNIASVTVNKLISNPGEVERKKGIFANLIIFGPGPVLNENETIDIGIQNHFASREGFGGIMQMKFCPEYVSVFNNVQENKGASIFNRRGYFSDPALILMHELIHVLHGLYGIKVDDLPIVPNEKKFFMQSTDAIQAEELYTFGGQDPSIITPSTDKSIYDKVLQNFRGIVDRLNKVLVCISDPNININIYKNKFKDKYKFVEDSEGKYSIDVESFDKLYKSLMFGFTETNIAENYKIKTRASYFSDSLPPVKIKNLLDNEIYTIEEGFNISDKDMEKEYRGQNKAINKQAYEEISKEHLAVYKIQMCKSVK
# Assay Procedure: biochemical
# Experimental Context: read-out: Inhibition rate %
Classification field: satisfied = inhibition at 100 µg/mL at or over 30%; not satisfied = inhibition at 100 µg/mL under 30%.

Answered cases to consult:
O=C(CSc1ncccc1C(=O)O)Nc1ccc(F)cc1 [Example 19, potassium] | not satisfied
O=C(CSc1ncccc1C(=O)[O-])Nc1ccccc1Cl.[K+] [Example 8, potassium] | satisfied
COc1ccc(Cl)cc1NCC(=O)Sc1ncccc1C(=O)[O-].[Na+] [Example 1, sodium] | not satisfied

For the next question, use this molecule.
Problem: # bool: inhibition at 100 µg/mL of CCOc1ccccc1NC(=O)CSc1ncccc1C(=O)O [Example 5] >= 30%
Solution: not satisfied

---

# System Under Test: tetanus toxin light chain (TeNt-LC) (Clostridium tetani, UniProt P04958)
# Sequence (P04958 2-457 limits assumed): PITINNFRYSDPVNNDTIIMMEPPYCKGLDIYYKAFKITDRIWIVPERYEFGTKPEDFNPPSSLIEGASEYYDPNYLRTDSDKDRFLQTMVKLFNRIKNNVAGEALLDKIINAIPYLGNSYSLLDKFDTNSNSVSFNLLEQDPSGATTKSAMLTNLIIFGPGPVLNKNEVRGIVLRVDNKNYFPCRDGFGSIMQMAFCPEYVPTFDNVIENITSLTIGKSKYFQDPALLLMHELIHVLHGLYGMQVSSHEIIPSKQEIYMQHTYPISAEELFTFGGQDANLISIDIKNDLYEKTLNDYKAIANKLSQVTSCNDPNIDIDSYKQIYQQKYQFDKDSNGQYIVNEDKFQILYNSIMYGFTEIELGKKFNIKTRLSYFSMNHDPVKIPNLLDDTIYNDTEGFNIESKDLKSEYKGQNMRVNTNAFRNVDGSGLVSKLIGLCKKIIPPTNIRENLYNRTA
# Assay Procedure: biochemical
# Experimental Context: read-out: Inhibition rate %
Each entry below carries its recorded inhibition at 200 µg/mL.
Quick note: give the figure in %, leave out the unit.

O=C(CSc1ncccc1C(=O)[O-])Nc1cccc(Cl)c1.[K+] [Example 20, potassium] | 22.2
O=C(CSc1ncccc1C(=O)[O-])Nc1cc(Br)ccc1Br.[K+] [Example 9, potassium] | 15.2
O=C(CSc1ncccc1C(=O)[O-])Nc1cc(Cl)ccc1OCc1ccccc1.[K+] [Example 23, sodium] | 30.3
COc1ccc(Cl)cc1NC(=O)CSc1cc(C(=O)[O-])ccn1.[K+] [Example 15, potassium] | 23.5

// sample O=C(CSc1ncccc1C(=O)[O-])Nc1ccc(OC(F)(F)F)cc1.[K+] [Example 21, potassium] , its inhibition at 200 µg/mL was 17.4

// sample COc1ccc(OC)c(NC(=O)CSc2ncccc2C(=O)O)c1 [Example 16, potassium] , its inhibition at 200 µg/mL was 16.2

// sample COc1ccc(Cl)cc1NCC(=O)Sc1ncccc1C(=O)[O-].[Na+] [Example 1, sodium] , its inhibition at 200 µg/mL was 12.8
